molecular target: T1, mouse programmed cell death protein 1 Fc fusion protein (mPD-1-Fc), mPD-1 C60S (aa 25-167) (Mus musculus, UniProt Q02242, stabilised); assay: SPR; Carterra LSA; Fab from the ammonium sulfate precipitate of the culture supernatant immobilised on a NiHC200M chip; hPD-1 (1-1024 nM) or mPD-1-Fc (4-1024 nM) as analyte, fourfold dilution series, no regeneration; HBS-EP pH 7.4, 25 °C; medians over the spots of a construct, KD = koff/kon; conditions: one partner purified
T1 construct: not cleaved; source: Expi293F, purified (Protein A, SEC; dimeric fraction); not shown: Fc (human), C-terminal, kept
pKd: −log10 of the molar value.

>  <binder>
toripalimab Fab L.F94Y (Fab, V domains shown, as the heavy chain of Sm3; light chain of Sm3 with this change; numbers count from the chain's first residue; source: Brevibacillus, culture supernatant (ammonium sulfate precipitate); not shown: 6xHis, C-terminal, kept; 6xHN, C-terminal, kept) VH: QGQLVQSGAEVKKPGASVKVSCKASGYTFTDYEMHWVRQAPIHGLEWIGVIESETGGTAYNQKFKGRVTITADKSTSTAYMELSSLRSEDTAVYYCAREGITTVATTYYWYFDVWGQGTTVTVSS VL: DVVMTQSPLSLPVTLGQPASISCRSSQSIVHSNGNTYLEWYLQKPGQSPQLLIYKVSNRFSGVPDRFSGSGSGTDFTLKISRVEAEDVGVYYCYQGSHVPLTFGQGTKLEIK

>  <pKd>
6.81

$$$$
>  <binder>
toripalimab Fab H.F64A (Fab, V domains shown, heavy chain of Sm3 with this change; numbers count from the chain's first residue; as the light chain of Sm3; source: Brevibacillus, culture supernatant (ammonium sulfate precipitate); not shown: 6xHis, C-terminal, kept; 6xHN, C-terminal, kept) VH: QGQLVQSGAEVKKPGASVKVSCKASGYTFTDYEMHWVRQAPIHGLEWIGVIESETGGTAYNQKAKGRVTITADKSTSTAYMELSSLRSEDTAVYYCAREGITTVATTYYWYFDVWGQGTTVTVSS VL: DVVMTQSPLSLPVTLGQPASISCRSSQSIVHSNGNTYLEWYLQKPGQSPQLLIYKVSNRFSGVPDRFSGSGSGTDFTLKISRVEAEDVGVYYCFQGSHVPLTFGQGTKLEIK

>  <pKd>
7.22

$$$$

This collection of values is drawn from paper PMC10663500.
